biological target: TNF-α converting enzyme (TACE) (Homo sapiens, UniProt P78536); assay: TACE inhibition (fluorescent peptidyl substrate); format: biochemical; settings: IC 50 nM (In Vitro Inhibition of TACE), Table 15
Sequence (P78536 215-824, species assumed): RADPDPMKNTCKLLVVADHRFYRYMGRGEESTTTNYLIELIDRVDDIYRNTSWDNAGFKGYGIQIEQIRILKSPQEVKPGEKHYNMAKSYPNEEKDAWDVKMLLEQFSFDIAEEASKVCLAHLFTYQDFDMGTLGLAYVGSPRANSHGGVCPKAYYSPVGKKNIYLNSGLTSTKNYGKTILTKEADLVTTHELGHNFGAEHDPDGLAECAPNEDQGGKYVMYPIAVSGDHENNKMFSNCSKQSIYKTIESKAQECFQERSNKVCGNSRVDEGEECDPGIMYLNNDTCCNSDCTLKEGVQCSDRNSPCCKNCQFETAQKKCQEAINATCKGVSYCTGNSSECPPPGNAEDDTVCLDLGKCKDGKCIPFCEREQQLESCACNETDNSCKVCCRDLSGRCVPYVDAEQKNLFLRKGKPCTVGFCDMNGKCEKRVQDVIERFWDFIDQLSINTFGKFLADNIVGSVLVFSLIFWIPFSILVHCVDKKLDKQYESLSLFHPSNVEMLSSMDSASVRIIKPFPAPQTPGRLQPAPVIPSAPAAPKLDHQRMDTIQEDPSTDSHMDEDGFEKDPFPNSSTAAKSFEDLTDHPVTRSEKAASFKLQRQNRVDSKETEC
Listed next: entries and their corresponding IC50.
Your reply should be a number followed by the unit it is expressed in.

# count of solved cases: 4
> print(dat)
                                   compound   result
1  CC#CCOc1ccc(S(=O)(=O)N[C@H](CCCNC(=O)c2ccsc2)C(=O)NO)cc1 [Example 347]  3.15 nM
2  CC#CCOc1ccc(S(=O)(=O)N[C@H](CCCNC(=O)c2ccc(Br)cc2)C(=O)NO)cc1 [Example 331]  5.32 nM
3  CC#CCOc1ccc(S(=O)(=O)N[C@H](CSCc2ccc(C)cc2)C(=O)NO)cc1 [Example 301]  24.6 nM
4  CC#CCOc1ccc(S(=O)(=O)N[C@H](CCCNC(=O)c2cccnc2)C(=O)NO)cc1 [Example 341]  4.88 nM

Query: May I ask what IC50 has been recorded for CC#CCOc1ccc(S(=O)(=O)N[C@H](CCCNC(=O)CCc2ccccc2)C(=O)NO)cc1 [Example 339] ?
Response: 4.6 nM

###

target: TNF-α converting enzyme (TACE) (Homo sapiens); assay: TACE inhibition (fluorescent peptidyl substrate); assay type: biochemical; conditions: read-out: TACE IC50
parameter-measured: pIC50
Units for pIC50: none; it is -log10 of a concentration expressed in mol/L.

# count of solved cases: 3
> print(dat)
                                   compound  numeric.value
1  CC#CCOc1ccc(S(=O)(=O)N(C)C(C(=O)NO)c2ccc(OCCN(C)C)cc2)cc1 (stereo not drawn) [Example 182]           7.80
2  CC#CCOc1ccc(S(=O)(=O)NC(C(=O)NO)C(C)(C)SCc2ccccc2)cc1 (stereo not drawn) [Example 162]           7.72
3  CC#CCOc1ccc(S(=O)(=O)N(C)C(C(=O)NO)C(C)(C)SCCn2ccnc2)cc1 (stereo not drawn) [Example 144]           7.22

Query: Find the measured pIC50: item CC#CCOc1ccc(S(=O)(=O)N(C)CC(=O)NO)cc1 [Example 17] , target or system TNF-α converting enzyme (TACE) (Homo sapiens).
Response: 8.17

Query: Find the measured pIC50: item CC#CCOc1ccc(S(=O)(=O)N(CC)C(C(=O)NO)C(C)C)cc1 (stereo not drawn) [Example 108] , target or system TNF-α converting enzyme (TACE) (Homo sapiens).
Response: 7.48

Query: Find the measured pIC50: item CC#CCOc1ccc(S(=O)(=O)N(C)C(C(=O)NO)c2ccc(OC)cc2)cc1 (stereo not drawn) [Example 178] , target or system TNF-α converting enzyme (TACE) (Homo sapiens).
Response: 7.64

Query: Find the measured pIC50: item CC#CCOc1ccc(S(=O)(=O)N(Cc2cccnc2)C(CSCc2ccccc2)C(=O)NO)cc1 (stereo not drawn) [Example 157] , target or system TNF-α converting enzyme (TACE) (Homo sapiens).
Response: 7.01

Query: Find the measured pIC50: item CC#CCOc1ccc(S(=O)(=O)N(C)C(C(=O)NO)C(C)(C)SCC)cc1 (stereo not drawn) [Example 150] , target or system TNF-α converting enzyme (TACE) (Homo sapiens).
Response: 7.29

Query: Find the measured pIC50: item CC#CCOc1ccc(S(=O)(=O)N(Cc2cccnc2)C(C(=O)NO)C(C)C)cc1 (stereo not drawn) [Example 114] , target or system TNF-α converting enzyme (TACE) (Homo sapiens).
Response: 7.03

Query: Find the measured pIC50: item CC#CCOc1ccc(S(=O)(=O)N2CCN(C(=O)CNC(=O)OC(C)(C)C)CC2C(=O)NO)cc1 (stereo not drawn) [Example 229] , target or system TNF-α converting enzyme (TACE) (Homo sapiens).
Response: 7.19

###

biological target: MMP-13 (Homo sapiens, UniProt P45452); assay: MMP-13 inhibition (thiopeptide or fluorescent peptide substrate); format: biochemical; conditions: read-out: MMP-13 IC50
Where a name gives a salt, the structure may show the parent alone.
Listed next: entries and their corresponding pIC50.
Units for pIC50: none; it is -log10 of a concentration expressed in mol/L.

# count of solved cases: 5
> print(dat)
                                   compound  parameter.measured  numeric.value
1  CC#CCOc1ccc(S(=O)(=O)N2CCCSC(C)(C)[C@@H]2C(=O)NO)cc1               pIC50           7.80
2  CC#CCOc1ccc(S(=O)(=O)NC(C(=O)NO)C(C)(C)SCC)cc1 (stereo not drawn)               pIC50           7.38
3  CC#CCOc1ccc(S(=O)(=O)NC(C)C(=O)NO)cc1 (stereo not drawn)               pIC50           7.40
4  CC#CCOc1ccc(S(=O)(=O)N(C)C(C(=O)NO)c2ccc(OCCCNC(C)=O)cc2)cc1 (stereo not drawn)               pIC50           7.82
5  CC#CCOc1ccc(S(=O)(=O)N2CCN(C(C)=O)CC2C(=O)NO)cc1 (stereo not drawn)               pIC50           7.66

Let us examine a further case.
Query: May I ask what pIC50 has been recorded for CC#CCOc1ccc(S(=O)(=O)N2CCN(C)CC2C(=O)NO)cc1 (stereo not drawn) [Example 56, Hydrochloride] ?
Response: 6.80

###

target: TNF-α converting enzyme (TACE) (Homo sapiens); assay: TACE inhibition (fluorescent peptidyl substrate); format: biochemical; settings: read-out: TACE IC50
Where a name gives a salt, the structure may show the parent alone.
parameter-measured: log10(IC50) (log10 of the value in nM)
Base-10 log of IC50, unit nM.

# count of solved cases: 5
> print(dat)
                                   compound  parameter.measured  numeric.value
1  CC#CCOc1ccc(S(=O)(=O)N[C@@H](C(=O)NO)C(C)(C)SCCCO)cc1         log10(IC50)           1.40
2  CC#CCOc1ccc(S(=O)(=O)N2CCN(C(C)=O)CC2C(=O)NO)cc1 (centres unmarked)         log10(IC50)           1.11
3  CC#CCOc1ccc(S(=O)(=O)N(CCCN2CCN(C)CC2)C(C(=O)NO)C(C)C)cc1 (centres unmarked) [Example 120, Hydrochloride]         log10(IC50)           2.17
4  CC#CCOc1ccc(S(=O)(=O)N2CCN(C(=O)Nc3cc(Cl)cc(Cl)c3)CC2C(=O)NO)cc1 (centres unmarked)         log10(IC50)           1.92
5  CC#CCOc1ccc(S(=O)(=O)N2CCN(C(=O)C3(C)COC(C)(C)OC3)CC2C(=O)NO)cc1 (centres unmarked)         log10(IC50)           1.77

Query: May I ask what log10(IC50) has been recorded for CC#CCOc1ccc(S(=O)(=O)N(C)C(C(=O)NO)c2ccc(OCCCNC(=O)OCC)cc2)cc1 (centres unmarked) ?
Response: 1.79

Query: May I ask what log10(IC50) has been recorded for CC#CCOc1ccc(S(=O)(=O)NC(C(=O)NO)c2ccc(OCCN3CCN(C(=O)OC(C)(C)C)CC3)cc2)cc1 (centres unmarked) ?
Response: 2.05

###

Listed next: entries and their corresponding IC50.
target: MMP-13 (Homo sapiens); test: MMP-13 inhibition (thiopeptide or fluorescent peptide substrate); format: biochemical; conditions: read-out: MMP-13 IC50

# count of solved cases: 2
> print(dat)
                                test.smiles      result
1  CC#CCOc1ccc(S(=O)(=O)NC2(C(=O)NO)CCN(C(=O)OC(C)(C)C)CC2)cc1      530 nM
2  CC#CCOc1ccc(S(=O)(=O)NC2(C(=O)NO)CCNCC2)cc1  > 10000 nM

Let us examine a further case.
Query: May I ask what IC50 has been recorded for CC#CCOc1ccc(S(=O)(=O)N[C@@H](C(=O)NO)C(C)(C)C)cc1 ?
Response: 41 nM

###

Target: MMP-1 (Homo sapiens)
Sequence (P03956 100-469): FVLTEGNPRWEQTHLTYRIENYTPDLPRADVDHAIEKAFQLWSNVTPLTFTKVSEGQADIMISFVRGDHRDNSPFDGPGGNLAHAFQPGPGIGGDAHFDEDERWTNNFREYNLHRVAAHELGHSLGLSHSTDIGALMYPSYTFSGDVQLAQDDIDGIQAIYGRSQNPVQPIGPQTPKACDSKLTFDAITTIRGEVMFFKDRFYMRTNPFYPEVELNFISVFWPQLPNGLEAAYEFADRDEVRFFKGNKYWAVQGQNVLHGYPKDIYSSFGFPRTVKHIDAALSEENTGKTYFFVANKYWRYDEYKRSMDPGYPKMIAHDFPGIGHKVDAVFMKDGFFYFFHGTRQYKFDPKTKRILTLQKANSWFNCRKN
Assay: MMP-1 inhibition (thiopeptide or fluorescent peptide substrate)
Format: biochemical
Conditions: Table 9; read-out: MMP-1 IC50
parameter-measured: log10 of IC50 (log10 of the value in nM)
Base-10 log of IC50, unit nM.

# count of solved cases: 3
> print(dat)
                                   compound  numeric.value
1  CCC#CCOc1ccc(S(=O)(=O)N2CCSC(C)(C)[C@@H]2C(=O)NO)cc1           0.77
2  CC#CCOc1ccc(S(=O)(=O)N2CCSC(CC)(CC)C2C(=O)NO)cc1 (stereo not drawn)           1.58
3  CCCCC#CCOc1ccc(S(=O)(=O)N2CCSC(C)(C)C2C(=O)NO)cc1 (stereo not drawn)           1.46

Query: Find the measured log10 of IC50: item CC#CCOc1ccc(S(=O)(=O)N2CC[S+]([O-])C(C)(C)C2C(=O)NO)cc1 (single isomer, unassigned) [Example 255] , target or system MMP-1 (Homo sapiens).
Response: 1.66

Query: Find the measured log10 of IC50: item C#CCOc1ccc(S(=O)(=O)N2CCSC(C)(C)[C@@H]2C(=O)NO)cc1 , target or system MMP-1 (Homo sapiens).
Response: -0.22

Query: Find the measured log10 of IC50: item CC#CCOc1ccc(S(=O)(=O)N2CCSC3(CCCC3)C2C(=O)NO)cc1 (stereo not drawn) , target or system MMP-1 (Homo sapiens).
Response: 1.38
